The reader will find reported pK1 values listed item by item below.
- Test: Acid-base titration (pK)
- Type: physicochemical
- Condition label: acid-base titration in METHYLCELLOSOLVE/H2O 4:1 (v/v), 0.01N KOH; salt form per Table IV

Molecule | pK1
CN1CCN(C(=O)C2NC(=O)C3NC(=O)C(NC(=O)C4NC(=O)C5NC(=O)C(Cc6ccc(c(Cl)c6)Oc6cc4cc(c6O)Oc4ccc(cc4Cl)C3O)NC(=O)C(N)c3ccc(O)c(c3)Oc3cc(O)cc5c3)c3ccc(O)c(c3)-c3c(O)cc(O)cc32)CC1 (stereo not shown) | 5.6
CC(=O)NC1C(OC2c3ccc(c(Cl)c3)Oc3cc4cc(c3O)Oc3ccc(cc3Cl)CC3NC(=O)C(N)c5ccc(O)c(c5)Oc5cc(O)cc(c5)C(NC3=O)C(=O)NC4C(=O)NC3C(=O)NC2C(=O)NC(C(=O)NCCN2CCOCC2)c2cc(O)cc(O)c2-c2cc3ccc2O)OC(CO)C(O)C1O (stereo not shown) | 5.3
NC1C(=O)NC2Cc3ccc(c(Cl)c3)Oc3cc4cc(c3O)Oc3ccc(cc3Cl)C(O)C3NC(=O)C(NC(=O)C4NC(=O)C(NC2=O)c2cc(O)cc(c2)Oc2cc1ccc2O)c1ccc(O)c(c1)-c1c(O)cc(O)cc1C(C(=O)N1CCOCC1)NC3=O (stereo not shown) | 6.6
NC1C(=O)NC2Cc3ccc(c(Cl)c3)Oc3cc4cc(c3O)Oc3ccc(cc3Cl)C(O)C3NC(=O)C(NC(=O)C4NC(=O)C(NC2=O)c2cc(O)cc(c2)Oc2cc1ccc2O)c1ccc(O)c(c1)-c1c(O)cc(O)cc1C(C(=O)N1CCN(c2ccccn2)CC1)NC3=O (stereo not shown) | 5.75

====

- Test system: S. pyogenes L 49
- Test: In vivo test in mice experimentally infected with S. pyogenes L 49 (ED50)
- Condition label: mice infected with S. pyogenes L 49; oral
Result type: ED50, route of administration os.

Molecule | Result
CN(C)CCCNC(=O)C1NC(=O)C2NC(=O)C(NC(=O)C3NC(=O)C4NC(=O)C(Cc5ccc(c(Cl)c5)Oc5cc3cc(c5O)Oc3ccc(cc3Cl)C2O)NC(=O)C(N)c2ccc(O)c(c2)Oc2cc(O)cc4c2)c2ccc(O)c(c2)-c2c(O)cc(O)cc21 (stereo not shown) | 140 mg/kg
CCN(CC)CCCNC(=O)C1NC(=O)C2NC(=O)C(NC(=O)C3NC(=O)C4NC(=O)C(Cc5ccc(c(Cl)c5)Oc5cc3cc(c5O)Oc3ccc(cc3Cl)C2O)NC(=O)C(N)c2ccc(O)c(c2)Oc2cc(O)cc4c2)c2ccc(O)c(c2)-c2c(O)cc(O)cc21 (stereo not shown) | > 300 mg/kg
Cl.Cl.NC1C(=O)NC2Cc3ccc(c(Cl)c3)Oc3cc4cc(c3O)Oc3ccc(cc3Cl)C(O)C3NC(=O)C(NC(=O)C4NC(=O)C(NC2=O)c2cc(O)cc(c2)Oc2cc1ccc2O)c1ccc(O)c(c1)-c1c(O)cc(O)cc1C(C(=O)NC1CN2CCC1CC2)NC3=O (stereo not shown) | > 300 mg/kg
CCCCN(CCCC)CCCNC(=O)C1NC(=O)C2NC(=O)C(NC(=O)C3NC(=O)C4NC(=O)C(Cc5ccc(c(Cl)c5)Oc5cc3cc(c5O)Oc3ccc(cc3Cl)C2O)NC(=O)C(N)c2ccc(O)c(c2)Oc2cc(O)cc4c2)c2ccc(O)c(c2)-c2c(O)cc(O)cc21 (stereo not shown) | > 300 mg/kg

====

- Test: Acid-base titration (pK)
- Format: physicochemical
- Condition label: acid-base titration in METHYLCELLOSOLVE/H2O 4:1 (v/v), 0.01N KOH; salt form per Table IV
- Protocol: The following table (Table IV) reports the acid-base titration data of some representative compounds of the invention. The assays were carried out in METHYLCELLOSOLVE/H2 O, 4:1(v/v). A sample is dissolved in METHYLCELLOSOLVE/H2 O, 4:1(v/v) (10 umole in about 20 ml) and then 0.01N HCl (2 ml) is added and the mixture is titrated with 0.01N KOH in the same solvent mixture.
Kind request: treat 6 as inclusive, so pK1 at 6 or higher is 1, anything lower is 0.

Compound | Classification
NC1C(=O)NC2Cc3ccc(c(Cl)c3)Oc3cc4cc(c3O)Oc3ccc(cc3Cl)C(O)C3NC(=O)C(NC(=O)C4NC(=O)C(NC2=O)c2cc(O)cc(c2)Oc2cc1ccc2O)c1ccc(O)c(c1)-c1c(O)cc(O)cc1C(C(=O)NCCCCCC(=O)NC1C(O)OC(CO)C(O)C1O)NC3=O (centres unmarked) [Compound 31] | 1
NC1C(=O)NC2Cc3ccc(c(Cl)c3)Oc3cc4cc(c3O)Oc3ccc(cc3Cl)C(O)C3NC(=O)C(NC(=O)C4NC(=O)C(NC2=O)c2cc(O)cc(c2)Oc2cc1ccc2O)c1ccc(O)c(c1)-c1c(O)cc(O)cc1C(C(=O)NCCN1CCOCC1)NC3=O (centres unmarked) [Compound 21] | 0
CCN(CC)CCCNC(=O)C1NC(=O)C2NC(=O)C(NC(=O)C3NC(=O)C4NC(=O)C(Cc5ccc(c(Cl)c5)Oc5cc3cc(c5O)Oc3ccc(cc3Cl)C2O)NC(=O)C(N)c2ccc(O)c(c2)Oc2cc(O)cc4c2)c2ccc(O)c(c2)-c2c(O)cc(O)cc21 (centres unmarked) [Compound 19] | 1
NC1C(=O)NC2Cc3ccc(c(Cl)c3)Oc3cc4cc(c3O)Oc3ccc(cc3Cl)C(O)C3NC(=O)C(NC(=O)C4NC(=O)C(NC2=O)c2cc(O)cc(c2)Oc2cc1ccc2O)c1ccc(O)c(c1)-c1c(O)cc(O)cc1C(C(=O)NCCN1CCCC1)NC3=O (centres unmarked) [Compound 22] | 1

====

- Tested on: Proteus vulgaris X 19H ATCC 881
- Test: In vitro antibacterial activity, standard agar-dilution test (MIC)
- Assay type: cell-based
- Condition label: inoculum about 10^4 CFU/ml, 18-24 h at 37° C.

Compound | Tested on | Comparator | MIC Proteus vulgaris X 19H ATCC 881 / µg/mL
NCCCCNC(=O)C1NC(=O)C2NC(=O)C(NC(=O)C3NC(=O)C4NC(=O)C(Cc5ccc(c(Cl)c5)Oc5cc3cc(c5O)Oc3ccc(cc3Cl)C2O)NC(=O)C(N)c2ccc(O)c(c2)Oc2cc(O)cc4c2)c2ccc(O)c(c2)-c2c(O)cc(O)cc21 (centres unmarked) | Proteus vulgaris X 19H ATCC 881 | = | 32
CCN1CCCC1CNC(=O)C1NC(=O)C2NC(=O)C(NC(=O)C3NC(=O)C4NC(=O)C(Cc5ccc(c(Cl)c5)Oc5cc3cc(c5O)Oc3ccc(cc3Cl)C2O)NC(=O)C(N)c2ccc(O)c(c2)Oc2cc(O)cc4c2)c2ccc(O)c(c2)-c2c(O)cc(O)cc21.Cl.Cl (centres unmarked) | Proteus vulgaris X 19H ATCC 881 | = | 32
CCN(CC)CCCNC(=O)C1NC(=O)C2NC(=O)C(NC(=O)C3NC(=O)C4NC(=O)C(Cc5ccc(c(Cl)c5)Oc5cc3cc(c5O)Oc3ccc(cc3Cl)C2O)NC(=O)C(N)c2ccc(O)c(c2)Oc2cc(O)cc4c2)c2ccc(O)c(c2)-c2c(O)cc(O)cc21 (centres unmarked) | Proteus vulgaris X 19H ATCC 881 | = | 32
NC1C(=O)NC2Cc3ccc(c(Cl)c3)Oc3cc4cc(c3O)Oc3ccc(cc3Cl)C(O)C3NC(=O)C(NC(=O)C4NC(=O)C(NC2=O)c2cc(O)cc(c2)Oc2cc1ccc2O)c1ccc(O)c(c1)-c1c(O)cc(O)cc1C(C(=O)N1CCN(c2ccccn2)CC1)NC3=O (centres unmarked) | Proteus vulgaris X 19H ATCC 881 | > | 128
CN(C)CCN(C)C(=O)C1NC(=O)C2NC(=O)C(NC(=O)C3NC(=O)C4NC(=O)C(Cc5ccc(c(Cl)c5)Oc5cc3cc(c5O)Oc3ccc(cc3Cl)C2O)NC(=O)C(N)c2ccc(O)c(c2)Oc2cc(O)cc4c2)c2ccc(O)c(c2)-c2c(O)cc(O)cc21 (centres unmarked) | Proteus vulgaris X 19H ATCC 881 | = | 64
CN(C)CCCCNC(=O)C1NC(=O)C2NC(=O)C(NC(=O)C3NC(=O)C4NC(=O)C(Cc5ccc(c(Cl)c5)Oc5cc3cc(c5O)Oc3ccc(cc3Cl)C2O)NC(=O)C(N)c2ccc(O)c(c2)Oc2cc(O)cc4c2)c2ccc(O)c(c2)-c2c(O)cc(O)cc21.O=C(O)C(F)(F)F.O=C(O)C(F)(F)F (centres unmarked) | Proteus vulgaris X 19H ATCC 881 | = | 32
NC1C(=O)NC2Cc3ccc(c(Cl)c3)Oc3cc4cc(c3O)Oc3ccc(cc3Cl)C(O)C3NC(=O)C(NC(=O)C4NC(=O)C(NC2=O)c2cc(O)cc(c2)Oc2cc1ccc2O)c1ccc(O)c(c1)-c1c(O)cc(O)cc1C(C(=O)N1CCOCC1)NC3=O (centres unmarked) | Proteus vulgaris X 19H ATCC 881 | = | 64
CN(C)CCCCCNC(=O)C1NC(=O)C2NC(=O)C(NC(=O)C3NC(=O)C4NC(=O)C(Cc5ccc(c(Cl)c5)Oc5cc3cc(c5O)Oc3ccc(cc3Cl)C2O)NC(=O)C(N)c2ccc(O)c(c2)Oc2cc(O)cc4c2)c2ccc(O)c(c2)-c2c(O)cc(O)cc21 (centres unmarked) | Proteus vulgaris X 19H ATCC 881 | = | 128
